Reference for the values: patent US20110065760A1

Listed below: EC50 at 48 h values for each entry.
experiment: WST-1 cytotoxicity assay, MCF-7; type: cell-based; conditions: human, MCF-7 cells (breast adenocarcinoma); WST-1, 48 h incubation; read-out: EC50 class, cytotoxic effect, CL-5 (MCF-7)

Would you please look over these solved cases?
1) Oc1c(NCc2ccccc2Sc2ccc(Cl)cc2)ccc(F)c1F	< 10 µM
2) CC(C)(C)CC(C)(C)NC(=O)Nc1cccc(Cl)c1O	< 10 µM
3) Cc1c(Cl)cc(NC(=S)NCc2ccccc2)c(O)c1Cl	10 to 50 µM
4) Cc1c(Cl)cc(NC(=O)NC(C)(C)CC(C)(C)C)c(O)c1Cl	< 10 µM
5) Cc1c(Cl)cc(NC(=O)NCCCCCCNC(=O)Nc2cc(Cl)c(C)c(Cl)c2O)c(O)c1Cl	< 10 µM

Return the recorded EC50 at 48 h value; entry: Oc1c(Cl)cc(Cl)cc1NCc1ccccc1Sc1ccc(Cl)cc1
10 to 50 µM

Return the recorded EC50 at 48 h value; entry: CC(C)(C)CC(C)(C)NC(=O)Nc1ccc(F)c(F)c1O
< 10 µM
